system: Glycine max (GLXMA); experiment: Post-emergence crop plant compatibility, GLXMA; assay type: in vivo; conditions: post-emergence, 20 g/ha, effect in comparison to untreated controls
value-type: Post-emergence action against GLXMA in % (%)
Numbers only; they are read as %.

Examples from the recorded data:
| compound | reading-unit | Post-emergence action against GLXMA in % |
| --- | --- | --- |
| CCOC(=O)COc1nn(-c2ncccc2F)c(-c2ccc(F)nc2)c1I [Example I-55] | % | 0 |
| O=C(COc1nn(-c2ccnc(Cl)c2)c(-c2ccc(F)nc2)c1Br)NS(=O)(=O)CC(F)(F)F [III-20] | % | 0 |
| O=C(O)CSc1nn(-c2ccccn2)c(-c2cncc(Cl)c2)c1Br [Example I-126] | % | 20 |

So for COC(=O)COc1nn(-c2ncccc2F)c(-c2cncc(F)c2)c1Br [Example I-49] , the logged Post-emergence action against GLXMA in % turned out to be 10

So for COC(=O)CN(C)C(=O)COc1nn(-c2ccnc(Cl)c2)c(-c2ccc(F)nc2)c1Br [III-21] , the logged Post-emergence action against GLXMA in % turned out to be 0

So for COC(=O)CNC(=O)COc1nn(-c2cccnc2C)c(-c2cncc(F)c2)c1Br [II-37] , the logged Post-emergence action against GLXMA in % turned out to be 0

So for COC(=O)CN(C)C(=O)COc1nn(-c2ccccn2)c(-c2ccc(F)nc2)c1Br [Example I-114] , the logged Post-emergence action against GLXMA in % turned out to be 0

So for CCOC(=O)CSc1nn(-c2ccccn2)c(-c2cncc(F)c2)c1Br [Example I-125] , the logged Post-emergence action against GLXMA in % turned out to be 20

====

tested on: Brassica napus (BRSNW); test: Post-emergence crop plant compatibility, BRSNW; format: in vivo; conditions: 80 g/ha, effect in comparison to untreated controls
Overview of reported Post-emergence action against BRSNW in % across a group of molecules:
Numbers only; they are read as %.

Examples from the recorded data:
| molecule | Post-emergence action against BRSNW in % / % |
| --- | --- |
| O=C(CSc1nn(-c2ccccn2)c(-c2cncc(F)c2)c1Br)NS(=O)(=O)c1ccccc1 [Example I-200] | 10 |
| CCOC(=O)C(Oc1nn(-c2ccccn2)c(-c2ccc(F)nc2)c1Br)C(C)C (stereo not drawn) [Example I-349] | 20 |
| O=C(O)C1CCN(C(=O)COc2nn(-c3ccccn3)c(-c3ccc(F)nc3)c2Br)CC1 [Example I-62] | 20 |
| COC(=O)C1CCN(C(=O)COc2nn(-c3ccccn3)c(-c3ccc(F)nc3)c2Br)C1 (stereo not drawn) [Example I-109] | 10 |
| COC(=O)CN(C)C(=O)COc1nn(-c2ccnc(Cl)c2)c(-c2ccc(F)nc2)c1Br [III-21] | 0 |

So for CCOC(=O)C1CCN(C(=O)COc2nn(-c3ccccn3)c(-c3ccc(F)nc3)c2Br)CC1 [Example I-112] , the logged Post-emergence action against BRSNW in % turned out to be 10

So for CCOC(=O)COc1nn(-c2ncccc2F)c(-c2ccc(F)nc2)c1I [Example I-55] , the logged Post-emergence action against BRSNW in % turned out to be 0

So for COC(=O)C1CCCN1C(=O)COc1nn(-c2ccccn2)c(-c2ccc(F)nc2)c1Br (stereo not drawn) [Example I-110] , the logged Post-emergence action against BRSNW in % turned out to be 20

So for C[C@@H](Oc1nn(-c2ncccc2F)c(-c2ccc(F)nc2)c1Br)C(=O)O [Example I-50] , the logged Post-emergence action against BRSNW in % turned out to be 20

All values here come from patent US20240041042A1.
